# inhibition per record follows
molecular target: Leucine aminopeptidase (Plasmodium falciparum (isolate 3D7)); test: P. falciparum M17LAP inhibitors, primary screen, biochemical, fluorogenic H-Leu-NHMec substrate, 1536-well (AID 1619); details: recombinant M17LAP, H-Leu-NHMec fluorogenic kinetic assay; at 30 µM; stronger effect = higher value;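 further: plate controls were full reaction with DMSO carrier for no effect and no enzyme background for full effect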
Hit rate of the full screen: of about 220,000 compounds, about 830 (0.38%) were called active. These entries were drawn from the full list. Entries with a potency or affinity are not part of this list.
Quantity measured: inhibition (%)

Compound | Quantity measured | Readout value
Cc1ccc(-n2c(SCC(=O)N3CCCc4ccccc43)nnc2-c2cccnc2)c(C)c1 | inhibition | 7.68
CCOC(=O)c1oc2cc(O)ccc2c(=O)c1-c1ccc(OC)cc1 | inhibition | 14.6
Cc1cc(C)c(OC2(c3ccccc3)OC(=O)c3ccccc32)c(C)c1 (centres undefined) | inhibition | -10.6
CC(=O)c1cc(-c2ccccc2)n(CC(=O)N2CCC(N3CCCCC3)CC2)c1C | inhibition | 5.06
CCOc1ccc(/C=C2\SC(=S)N(NS(=O)(=O)c3ccc(C)cc3)C2=O)cc1OC | inhibition | 21.5
Cc1cc(-c2ccccc2)nc(Oc2cccc(C(F)(F)F)c2)c1S(C)(=O)=O | inhibition | -2.06
CCN(CC)C(=O)CSc1nc2ccc(NC(=O)CSc3nnc(N)s3)cc2s1 | inhibition | 19.7
N#Cc1cccc(NC(=O)COC(=O)c2cccc(N3C(=O)c4ccccc4C3=O)c2)c1 | inhibition | 8.44
CCC(=O)N(Cc1ccc(C)cc1)Cc1cc2cc3c(cc2[nH]c1=O)OCO3 | inhibition | -7.35
CCOc1ccc(/C=C2/SC(=S)N(C(C(=O)O)c3ccccc3)C2=O)cc1OCC (centres undefined) | inhibition | 21.4
Cc1cc(C(=O)CSc2cccc[n+]2[O-])c(C)n1-c1ccc(Br)cc1 | inhibition | 1.39
COc1ccc(NC(=O)CSc2n[nH]c(N)n2)c([N+](=O)[O-])c1 | inhibition | 56.1
CS(=O)(=O)N(CC(=O)N1CCOCC1)Cc1ccc(Cl)cc1 | inhibition | -4.28
CCOc1ccc(/C=C2\SC(=S)N(NS(=O)(=O)c3ccccc3)C2=O)cc1OC | inhibition | 43.7
COc1cc(/C=N/NC(=O)c2nonc2N)cc(OC)c1OC | inhibition | 12.6
COC(=O)N/N=C/c1ccc(OC(=O)/C=C/c2ccco2)cc1 | inhibition | -6.97
CCCC(=O)Nc1ccc(C(=O)NN2C(=O)c3ccccc3C2=O)cc1 | inhibition | -2.16
O=C(CSc1ccc(Cl)cc1)Nn1cnnc1 | inhibition | 8.97
COC(=O)c1c(NC(=O)Cn2cnc([N+](=O)[O-])n2)sc2c1CCC(C)C2 (centres undefined) | inhibition | 1.07
CC1(c2ccccc2)NC(=O)N(CC(=O)Nc2cccc(C#N)c2)C1=O (centres undefined) | inhibition | -4.04
O=C(CCCOc1ccccc1)n1nnc2ccccc21 | inhibition | -0.57
Cc1nnc(SCC(=O)Nc2ccc3c4c(cccc24)CC3)n1C | inhibition | 0.6
COC(=O)CSc1nnc(-c2ccc(NS(=O)(=O)c3ccccc3)cc2)o1 | inhibition | 55.1
O=C(O)c1cc2ncc(-c3[nH]ncc3[N+](=O)[O-])cn2n1 | inhibition | 15.3
COc1cc(NC(=O)c2cccc(C)c2)c(OC)cc1NC(=O)CN1CCOCC1 | inhibition | 14.9
Cc1c(Nc2nc3ccccc3nc2N2CCN(c3ccccc3)CC2)c(=O)n(-c2ccccc2)n1C | inhibition | 9.74
CCOC(=O)c1c(-c2ccc(C)cc2)csc1NC(=O)C1CCCO1 (centres undefined) | inhibition | -4.23
O=C(Nc1ccc(Cl)cc1)c1cc(S(=O)(=O)N2CCOCC2)cs1 | inhibition | 1.6
Fc1cccc2sc(Nc3nc4c(F)cccc4s3)nc12 | inhibition | 16.7
Cc1ccc(-n2c(SCC(N)=O)nnc2-c2cccnc2)c(C)c1 | inhibition | 1.98
O=C1CC(C(=O)NCc2ccccc2)C2(CCCC2)O1 (centres undefined) | inhibition | -0.86
O=C(NCC1CCCO1)c1ccc(NS(=O)(=O)c2ccccc2)cc1 (centres undefined) | inhibition | -3.12
CCc1nnc(NC(=O)CSc2nnc(-c3ccco3)o2)s1 | inhibition | 4.71
Cc1csc2c(SCC(=O)NNS(=O)(=O)c3cccc(C(F)(F)F)c3)ncnc12 | inhibition | -12.4
Cc1cnc2c(C(=O)O)cnn2c1 | inhibition | 13.5
CCN(CC)S(=O)(=O)c1cccc(NC(=O)CSc2nnc(N)s2)c1 | inhibition | 2.68
O=C(CN1NS(=O)(=O)c2ccccc2C1=O)Nc1ccccc1OC(F)F | inhibition | 43.5
CCOC(=O)c1csc(NC(=O)CSc2nnnn2-c2ccc(OC)c(OC)c2)n1 | inhibition | 11.3
CC(=O)c1cc(Cl)ccc1OC(=O)c1ccco1 | inhibition | -7.24
COc1cc(/C=C2\SC(=S)N(NS(=O)(=O)c3ccccc3)C2=O)cc(OC)c1OC | inhibition | 27.3
O=C1C2C(c3ccccc3)C=CC(c3ccccc3)C2C(=O)N1C1CCCCC1 (centres undefined) | inhibition | 4.34
CCc1ccccc1NC(=O)C1C(c2ccccc2)C1(Cl)Cl (centres undefined) | inhibition | -8.78
CC1CCc2c(sc(NC(=O)C3c4ccccc4Oc4ccccc43)c2C(N)=O)C1 (centres undefined) | inhibition | 8.46
CC(=O)c1nn(-c2cccc(Cl)c2)cc1C(=O)c1ccco1 | inhibition | -0.97
